Test system: HL-60(TB) leukemia
test name: NCI tumour cell line growth inhibition, 48 h
quantity name: TGI (µM)
Reply numerically in µM, unit not repeated.

State the recorded TGI for this entry: CC(C)(C)OC(=O)NC(CO)c1cccc(OCc2ccccc2)c1 (stereo not given)
43.8

Requested read-out: TGI. Entry: CCN(CC)CCCC(C)N=c1cc(Nc2cc(=NC(C)CCCN(CC)CC)c3cc(OC)ccc3o2)oc2ccc(OC)cc12 (stereo not given)
13.2

Given COC(=O)/C=C(\S/C(=N\n1cc(C(=O)OC)c(C(=O)OC)c1-c1ccc(C)cc1)c1ccc(C)cc1)C(=O)OC , state its recorded TGI.
14.7

Requested field: TGI. Item: CC1=C([Te]c2ccc(O)cc2)C(=O)c2ccccc2C1=O
5

###

Documented TGI across a set of compounds
Test system: LOX IMVI melanoma
test name: NCI tumour cell line growth inhibition, 48 h

- compound: "O=C(CCC(C(=O)c1ccccc1)c1ccccc1)c1ccccc1 (configuration not stated)"
  quantity name: "TGI"
  readout value: "> 100 µM"

Attention now shifts to the item below.
Which measured TGI belongs to CC(O)C1(CNc2cc(Cl)nc(N)n2)CC(CCc2ccccc2)C1 (configuration not stated) , tested on LOX IMVI melanoma?
16.9 µM

###

System: 786-0 renal
test name: NCI tumour cell line growth inhibition, 48 h
quantity name: TGI

In the examples that follow, each entry is paired with its recorded TGI.
- mol smiles: "O=C(O)[C@@H]1NC[C@H]2C(Br)=NO[C@H]21"
  TGI: "> 100 µM"
- mol smiles: "O=c1oc2ccc(-n3c(=O)c4ccccc4c4ccccc4c3=O)cc2c2ccccc12"
  TGI: "> 100 µM"
- mol smiles: "CCOC(=O)/C(=C(/C)NCC(C)C)c1cc(O)c(O)c2c(C)cc(=O)[nH]c12"
  TGI: "46.4 µM"
- mol smiles: "O=[N+]([O-])c1c(C=Nc2ccccc2)oc(-c2ccc3c(c2)OCO3)c1-c1ccc2c(c1)OCO2"
  TGI: "> 100 µM"

Moving on to another molecule below.
Field request: TGI | item: CN(Cc1ccccc1)C(=NC#N)N(C)Cc1ccccc1
> 100 µM

###

Quick reference for TGI among some compounds
Test system: NCI-H226 lung
test name: NCI tumour cell line growth inhibition, 48 h

GET /values?readout=TGI&item= O=C1CCCC2C3CC(CN12)C1CCCCN1C3 (stereo not drawn)
> 100 µM

Look at this compound and give its reported TGI. COC(=O)Nc1nc2ccc(NC(=O)c3cccs3)cc2[nH]1
> 100 µM

Find the recorded TGI belonging to CC(=O)O[C@H]1C(=O)[C@@]2(C)[C@H]([C@H](OC(=O)c3ccccc3)[C@]3(O)C[C@H](OC(=O)[C@H](O)[C@@H](NC(=O)C(C)(C)C)c4ccccc4)C(C)=C1C3(C)C)[C@]1(OC(C)=O)CO[C@@H]1C[C@@H]2O and report it.
> 10 µM

GET /values?readout=TGI&item= COc1cc(/C=C2\C(=O)N(C(=O)c3ccc(NC(C)=O)cc3)N=C2C)ccc1O
> 100 µM

So what's the measured TGI for this one? CC(=O)N1CC(=O)N2C(=O)/C(=C/c3ccc(Cl)cc3)N=C12
> 100 µM

Name the recorded TGI for O=C1c2ccccc2-c2c1c1c(O)cccc1n2-c1ccccc1 .
> 100 µM

Entry N#CCC(=O)N/N=C(\C(=O)Nc1ccc(Cl)c(Cl)c1)C1CN(c2ccccc2)N=C1N (stereo not drawn) : reported TGI = ?
> 100 µM

Reported TGI, compound COc1c(C)cc2c(c1O)C1NC(C2)[C@H](O)N2C3COC(=O)[C@@]4(CS[C@@H](c5c(OC(C)=O)c(C)c6c(c53)OCO6)C12)NCCC1=C4NC2C=CC=CC12 (stereo partly drawn) : ____
< 0.01 µM

Using the record for COc1ccc(-c2nc(N3CCN(C(=O)C4CCCCC4)CC3)c3c4c(sc3n2)CCCC4)cc1 , report its TGI.
> 100 µM

Data request, read-out TGI, for Cc1nc2c(o1)C(=O)c1ccccc1C2=Nc1ccc(N2CCOCC2)cc1
42.1 µM
